Quick list: pIC50 per entry.
# TARGET_OF_ASSAY: RAC-alpha serine/threonine-protein kinase (Homo sapiens)
# Sequence (P31749 whole entry): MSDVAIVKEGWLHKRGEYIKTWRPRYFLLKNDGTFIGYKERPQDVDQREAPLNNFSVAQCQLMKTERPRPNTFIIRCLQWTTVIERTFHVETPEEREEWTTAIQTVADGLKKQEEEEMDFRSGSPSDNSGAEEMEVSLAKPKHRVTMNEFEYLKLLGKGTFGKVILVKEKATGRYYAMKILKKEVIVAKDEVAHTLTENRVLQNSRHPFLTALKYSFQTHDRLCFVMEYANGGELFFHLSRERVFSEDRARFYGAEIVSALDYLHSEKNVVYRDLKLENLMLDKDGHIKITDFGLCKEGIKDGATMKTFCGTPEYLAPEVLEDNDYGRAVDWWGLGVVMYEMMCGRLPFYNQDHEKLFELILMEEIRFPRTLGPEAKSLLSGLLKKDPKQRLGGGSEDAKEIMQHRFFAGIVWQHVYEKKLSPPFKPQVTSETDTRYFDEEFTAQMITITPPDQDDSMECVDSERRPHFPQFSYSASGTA
# PROCEDURE_DETAILS: Inhibition of AKT1 after 10 mins by [gamma33]ATP assay
pIC50: −log10 of the molar value.

{"columns": ["COMPOUND_STRING", "COMPARATOR", "pIC50"],
 "data": [
  ["N[C@H](CNc1ncc(-c2ccc3cncnc3c2)s1)Cc1ccc(C(F)(F)F)cc1", "=", 7.46],
  ["N[C@H](CNc1ncc(-c2ccc3nnccc3c2)s1)Cc1ccc(C(F)(F)F)cc1", "=", 6.85],
  ["N[C@H](CNc1ncc(-c2ccc3cnccc3c2)s1)Cc1ccc(C(F)(F)F)cc1", "=", 8.31],
  ["N[C@H](CCc1cc(-c2ccc3cnccc3c2)no1)Cc1ccc(C(F)(F)F)cc1", "=", 7.40],
  ["N[C@H](CNc1ncc(-c2ccc3cn[nH]c3c2)s1)Cc1ccc(C(F)(F)F)cc1", "=", 6.21],
  ["N[C@H](CNc1cc(-c2ccc3cnccc3c2)no1)Cc1ccc(C(F)(F)F)cc1", "=", 7.77],
  ["N[C@H](CNc1ncc(-c2ccc3c(c2)CCC(=O)N3)s1)Cc1ccc(C(F)(F)F)cc1", "=", 5.48],
  ["N[C@H](CNc1ncc(-c2ccc3cn[nH]c(=O)c3c2)s1)Cc1ccc(C(F)(F)F)cc1", "<", 6.00],
  ["Nc1cc2cc(-c3cnc(NC[C@@H](N)Cc4ccc(C(F)(F)F)cc4)s3)ccc2cn1", "=", 7.94]
]}

----------
Quick reference: AUC(0-t) at 24 h of the listed items.
# PROCEDURE_DETAILS: AUC (0 to 24 hrs) in Sprague-Dawley rat at 5 mg/kg, po
# Format: ADME, organism-based
# Design: time < 24 hr, dose 5 mg/kg, route oral
# RUN_CONDITIONS: plasma

{"columns": ["COMPOUND_STRING", "UNIT_SPEC", "AUC(0-t) at 24 h"],
 "data": [
  ["N[C@H](CNc1ncc(-c2ccc3cnccc3c2)s1)Cc1ccc(C(F)(F)F)cc1", "ng·h/mL", 387],
  ["N[C@H](CNc1ncc(-c2ccc3[nH]c(=O)oc3c2)s1)Cc1ccc(C(F)(F)F)cc1", "ng·h/mL", 348],
  ["N[C@H](CNc1ncc(-c2ccc3c(c2)CC(=O)N3)s1)Cc1ccc(C(F)(F)F)cc1", "ng·h/mL", 2600]
]}

----------
# PROCEDURE_DETAILS: Cytotoxicity against human U87MG cells after 3 days by alamar blue assay
# Type: functional, cell-based, U-87MG ATCC
# RUN_CONDITIONS: U-87 MG, 72 h
pIC50: −log10 of the molar value.

{"columns": ["COMPOUND_STRING", "pIC50"],
 "data": [
  ["N[C@H](CNc1ncc(-c2ccc3c(c2)CC(=O)N3)s1)Cc1ccc(C(F)(F)F)cc1", 6.20]
]}

----------
Measured pIC50, listed per entry.
# TARGET_OF_ASSAY: Cyclin-dependent kinase 2 (Homo sapiens, UniProt P24941)
# PROCEDURE_DETAILS: Inhibition of CDK2
pIC50: −log10 of the molar value.

{"columns": ["COMPOUND_STRING", "TARGET_OF_ASSAY", "COMPARATOR", "pIC50"],
 "data": [
  ["N[C@H](CNc1ncc(-c2ccc3nnccc3c2)s1)Cc1ccc(C(F)(F)F)cc1", "Cyclin-dependent kinase 2 (Homo sapiens, UniProt P24941)", "<", 5.70],
  ["N[C@H](CCc1cc(-c2ccc3cnccc3c2)no1)Cc1ccc(C(F)(F)F)cc1", "Cyclin-dependent kinase 2 (Homo sapiens, UniProt P24941)", "=", 6.93],
  ["Cn1nc(N)c2ccc(-c3cnc(NC[C@@H](N)Cc4ccc(C(F)(F)F)cc4)s3)cc21", "Cyclin-dependent kinase 2 (Homo sapiens, UniProt P24941)", "<", 5.70],
  ["N[C@H](CNc1ncc(-c2ccc3c(c2)CNC3=O)s1)Cc1ccc(C(F)(F)F)cc1", "Cyclin-dependent kinase 2 (Homo sapiens, UniProt P24941)", "<", 5.05],
  ["N[C@H](CNc1ncc(-c2ccc3[nH]c(=O)sc3c2)s1)Cc1ccc(C(F)(F)F)cc1", "Cyclin-dependent kinase 2 (Homo sapiens, UniProt P24941)", "=", 6.55],
  ["N[C@H](CCc1nc(-c2ccc3cnccc3c2)no1)Cc1ccc(C(F)(F)F)cc1", "Cyclin-dependent kinase 2 (Homo sapiens, UniProt P24941)", "=", 5.33],
  ["N[C@H](CNc1ncc(-c2ccc3c(c2)CCC(=O)N3)s1)Cc1ccc(C(F)(F)F)cc1", "Cyclin-dependent kinase 2 (Homo sapiens, UniProt P24941)", "<", 4.60],
  ["N[C@H](CNc1ncc(-c2ccc3cnccc3c2)s1)Cc1ccc(C(F)(F)F)cc1", "Cyclin-dependent kinase 2 (Homo sapiens, UniProt P24941)", "=", 7.91],
  ["N[C@H](CNc1cc(-c2ccc3cnccc3c2)no1)Cc1ccc(C(F)(F)F)cc1", "Cyclin-dependent kinase 2 (Homo sapiens, UniProt P24941)", "=", 7.03]
]}

----------
# PROCEDURE_DETAILS: Clearance in Sprague-Dawley rat at 2 mg/kg, iv
# Assay type: ADME, organism-based
# Set-up: dose 2 mg/kg, route intravenous
# RUN_CONDITIONS: in vivo
# key: entry, value: clearance
PROPERTY_LABEL: clearance (mL/min/kg)

{"columns": ["COMPOUND_STRING", "VAL"],
 "data": [
  ["N[C@H](CNc1ncc(-c2ccc3[nH]c(=O)oc3c2)s1)Cc1ccc(C(F)(F)F)cc1", 26.7],
  ["N[C@H](CNc1ncc(-c2ccc3cnccc3c2)s1)Cc1ccc(C(F)(F)F)cc1", 45]
]}

----------
# PROCEDURE_DETAILS: Plasma concentration in human U87MG cells xenografted CD1 nude mouse at 30 mg/kg, po QD for 18 days measured after 3 hrs post last dose
# Type: ADME, organism-based, U-87MG ATCC
# Design: dose 30 mg/kg, route oral
PROPERTY_LABEL: concentration at 3 h (µM)

{"columns": ["COMPOUND_STRING", "PROPERTY_LABEL", "VAL"],
 "data": [
  ["N[C@H](CNc1ncc(-c2ccc3c(c2)CC(=O)N3)s1)Cc1ccc(C(F)(F)F)cc1", "concentration at 3 h", 6.2]
]}

----------
Each item that follows carries a reported half-life.
# PROCEDURE_DETAILS: Half life in Sprague-Dawley rat at 2 mg/kg, iv
# Format: ADME, organism-based
# Set-up: dose 2 mg/kg, route intravenous
# RUN_CONDITIONS: in vivo

{"columns": ["COMPOUND_STRING", "UNIT_SPEC", "half-life"],
 "data": [
  ["N[C@H](CNc1ncc(-c2ccc3cnccc3c2)s1)Cc1ccc(C(F)(F)F)cc1", "h", 2.9],
  ["N[C@H](CNc1ncc(-c2ccc3c(c2)CC(=O)N3)s1)Cc1ccc(C(F)(F)F)cc1", "h", 4.3],
  ["N[C@H](CNc1ncc(-c2ccc3[nH]c(=O)oc3c2)s1)Cc1ccc(C(F)(F)F)cc1", "h", 3.8]
]}
